# target_desc: FLJ39196 clone-derived protein (human neurocalcin δ) (Homo sapiens, UniProt P61601)
# Construct: A human full-length cDNA clone was expressed as a protein with an N-terminal His tag; His tag (N); made in house; host or cells: Escherichia coli BL21star(DE3)pLysS (pDEST17 Gateway expression plasmid)
# procedure_text: SEC/MS interaction analysis (size exclusion spin column and mass analysis) with FLJ39196 clone-derived protein
# Format: binding
# measurement_conditions: protein 47.5 μM, compound 10 μM
Recorded measurements of spectral intensity of the compound in the SEC spin column filtrate (protein fraction), one per entry
Reply briefly: the number, and no unit.

compound: COC(=O)[C@H]1[C@H]2C[C@@H]3c4[nH]c5cc(OC)ccc5c4CCN3C[C@H]2C[C@@H](OC(=O)/C=C/c2cc(OC)c(OC)c(OC)c2)[C@@H]1OC
readout_value: 40677751

compound: CCCCCCCCNC(C)C(O)c1ccc(SC(C)C)cc1 (stereo not shown)
readout_value: 7209043

compound: C[C@]12Cc3c[nH]nc3C[C@@H]1CC[C@@H]1[C@@H]2CC[C@@]2(C)[C@H]1CC[C@]2(C)O
readout_value: 25533379

Consider the record given below.
Exercise: Read the entry c1ccc(-c2ccc(C(c3ccccc3)n3ccnc3)cc2)cc1 (stereo not shown) and write its reported spectral intensity of the compound in the SEC spin column filtrate (protein fraction).
Key: 38342358

###

# target_desc: FLJ39196 clone-derived protein (human neurocalcin δ) (Homo sapiens)
# Construct: A human full-length cDNA clone was expressed as a protein with an N-terminal His tag; His tag (N); made in house; host or cells: Escherichia coli BL21star(DE3)pLysS (pDEST17 Gateway expression plasmid)
# procedure_text: SEC/MS interaction analysis (size exclusion spin column and mass analysis) with FLJ39196 clone-derived protein
# Format: binding
# measurement_conditions: protein 47.5 μM, compound 100 μM
Counter-ions that a name gives are not always drawn.
readout_name: spectral intensity of the compound in the SEC spin column filtrate (protein fraction)
Reply briefly: the number, and no unit.

molecule: COC(=O)[C@H]1[C@H]2C[C@@H]3c4[nH]c5cc(OC)ccc5c4CCN3C[C@H]2C[C@@H](OC(=O)/C=C/c2cc(OC)c(OC)c(OC)c2)[C@@H]1OC
readout_value: 675671326
--
molecule: CN1CCC(=C2c3ccccc3Sc3ccccc32)CC1
readout_value: 197624997
--
molecule: CC(C)/N=c1\cc2n(-c3ccc(Cl)cc3)c3ccccc3nc-2cc1Nc1ccc(Cl)cc1
readout_value: 312686548

Consider the record given below.
Exercise: Read the entry O=C(c1ccc(OCCN2CCCCC2)cc1)c1c(-c2ccc(O)cc2)sc2cc(O)ccc12 [Raloxifene hydrochloride] and write its reported spectral intensity of the compound in the SEC spin column filtrate (protein fraction).
Key: 122918120

###

# target_desc: FLJ39196 clone-derived protein (human neurocalcin δ) (Homo sapiens)
# Construct: A human full-length cDNA clone was expressed as a protein with an N-terminal His tag; His tag (N); made in house; host or cells: Escherichia coli BL21star(DE3)pLysS (pDEST17 Gateway expression plasmid)
# procedure_text: SEC/MS interaction analysis (size exclusion spin column and mass analysis) with FLJ39196 clone-derived protein
# Format: binding
# measurement_conditions: protein 23.75 μM, compound 100 μM
Recorded measurements of spectral intensity of the compound in the SEC spin column filtrate (protein fraction), one per entry
Reply briefly: the number, and no unit.

Exercise: Read the entry CC(C)COCC(CN(Cc1ccccc1)c1ccccc1)N1CCCC1 (stereo not drawn) and write its reported spectral intensity of the compound in the SEC spin column filtrate (protein fraction).
Key: 771184721

Exercise: Read the entry CC(C)/N=c1\cc2n(-c3ccc(Cl)cc3)c3ccccc3nc-2cc1Nc1ccc(Cl)cc1 and write its reported spectral intensity of the compound in the SEC spin column filtrate (protein fraction).
Key: 138678443

Exercise: Read the entry CC(C)[C@@]1(NC(=O)[C@@H]2C[C@@H]3c4cccc5[nH]cc(c45)C[C@H]3N(C)C2)O[C@@]2(O)[C@@H]3CCCN3C(=O)[C@H](Cc3ccccc3)N2C1=O [Dihydroergocristine] and write its reported spectral intensity of the compound in the SEC spin column filtrate (protein fraction).
Key: 910395859

Exercise: Read the entry CN1CCN(CCCN2c3ccccc3Sc3ccc(C(F)(F)F)cc32)CC1 and write its reported spectral intensity of the compound in the SEC spin column filtrate (protein fraction).
Key: 293702761

Exercise: Read the entry COC(=O)[C@H]1[C@H]2C[C@@H]3c4[nH]c5cc(OC)ccc5c4CCN3C[C@H]2C[C@@H](OC(=O)/C=C/c2cc(OC)c(OC)c(OC)c2)[C@@H]1OC and write its reported spectral intensity of the compound in the SEC spin column filtrate (protein fraction).
Key: 215933519

###

# target_desc: FLJ39196 clone-derived protein (human neurocalcin δ) (Homo sapiens)
# Construct: A human full-length cDNA clone was expressed as a protein with an N-terminal His tag; His tag (N); made in house; host or cells: Escherichia coli BL21star(DE3)pLysS (pDEST17 Gateway expression plasmid)
# procedure_text: SEC/MS interaction analysis (size exclusion spin column and mass analysis) with FLJ39196 clone-derived protein
# Type: binding
# measurement_conditions: protein 23.75 μM, compound 10 μM
Recorded measurements of spectral intensity of the compound in the SEC spin column filtrate (protein fraction), one per entry
Reply briefly: the number, and no unit.

Recorded spectral intensity of the compound in the SEC spin column filtrate (protein fraction), per entry:
molecule: COC(=O)[C@H]1[C@H]2C[C@@H]3c4[nH]c5cc(OC)ccc5c4CCN3C[C@H]2C[C@@H](OC(=O)/C=C/c2cc(OC)c(OC)c(OC)c2)[C@@H]1OC [Rescinnamine]
readout_value: 21895843

molecule: Clc1ccc(C(OCCN2CCCCC2)c2ccccc2)cc1 (stereo not drawn) [chloperastine]
readout_value: 9288224

molecule: c1ccc(-c2ccc(C(c3ccccc3)n3ccnc3)cc2)cc1 (stereo not drawn) [Bifonazole]
readout_value: 30253800

molecule: CC(C)[C@@]1(NC(=O)[C@@H]2C[C@@H]3c4cccc5[nH]cc(c45)C[C@H]3N(C)C2)O[C@@]2(O)[C@@H]3CCCN3C(=O)[C@H](Cc3ccccc3)N2C1=O [Dihydroergocristine]
readout_value: 327393156

molecule: CN1CCN(CCCN2c3ccccc3Sc3ccc(C(F)(F)F)cc32)CC1 [Trifluoperazine]
readout_value: 40058178

molecule: CN(C)CC/C=C1/c2ccccc2Sc2ccc(Cl)cc21 [Chlorprothixene]
readout_value: 31548696

molecule: NS(=O)(=O)c1cc2c(cc1Cl)N=C(CSCc1ccccc1)NS2(=O)=O [Benzthiazide]
readout_value: 1095223

molecule: CC(O)(CS(=O)(=O)c1ccc(F)cc1)C(=O)Nc1ccc(C#N)c(C(F)(F)F)c1 (stereo not drawn) [Bicaltamide]
readout_value: 914364

Exercise: Read the entry OCCN1CCN(CC/C=C2/c3ccccc3Sc3ccc(C(F)(F)F)cc32)CC1 [Flupentixol cis-(Z)] and write its reported spectral intensity of the compound in the SEC spin column filtrate (protein fraction).
Key: 66148127

Exercise: Read the entry CC(NCCC(c1ccccc1)c1ccccc1)c1ccccc1 (stereo not drawn) [Fendiline] and write its reported spectral intensity of the compound in the SEC spin column filtrate (protein fraction).
Key: 18323956

Exercise: Read the entry CCc1cc2c(s1)N(C)C(=O)CN=C2c1ccccc1Cl [clotiazepam] and write its reported spectral intensity of the compound in the SEC spin column filtrate (protein fraction).
Key: 25038949

Exercise: Read the entry Cc1cc(-c2ccccc2)nnc1NCCN1CCOCC1 [Minaprine] and write its reported spectral intensity of the compound in the SEC spin column filtrate (protein fraction).
Key: 88615018

###

# target_desc: FLJ20589 clone-derived protein (human hippocalcin-like protein 1, VILIP-3) (Homo sapiens, UniProt P37235)
# Construct: A human full-length cDNA clone was expressed as a protein with an N-terminal His tag; His tag (N); made in house; host or cells: Escherichia coli BL21star(DE3)pLysS (pDEST17 Gateway expression plasmid)
# procedure_text: SEC/MS interaction analysis (size exclusion spin column and mass analysis) with FLJ20589 clone-derived protein
# Format: binding
# measurement_conditions: protein 47.5 μM, compound 1 μM
Recorded measurements of spectral intensity of the compound in the SEC spin column filtrate (protein fraction), one per entry

Recorded spectral intensity of the compound in the SEC spin column filtrate (protein fraction), per entry:
compound: c1ccc(-c2ccc(C(c3ccccc3)n3ccnc3)cc2)cc1 (stereo not shown)
readout_value: 1367901
--
compound: CN1CCN(CCCN2c3ccccc3Sc3ccc(C(F)(F)F)cc32)CC1
readout_value: 459554
--
compound: Fc1ccc(C(c2ccc(F)cc2)N2CCN(C/C=C/c3ccccc3)CC2)cc1
readout_value: 58869

Consider the record given below.
Exercise: Read the entry O=C1CN=C(c2ccccc2)c2cc(Cl)ccc2N1CC1CC1 and write its reported spectral intensity of the compound in the SEC spin column filtrate (protein fraction).
Key: 603084

The reported numbers originate from patent US8178077B2.
